PROCEDURE_TEXT: inhibition of 3D7 malaria parasite growth – strain 3D7 (AID 2306);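 also: 0% = DMSO wells and 100% = chloroquine plus artemisinin control wells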
ASSAY_CONTEXT: P. falciparum 3D7 erythrocytic growth, LDH absorbance, 72 h; at 2 µM; active compounds read high
Parameter threshold = 90%. Response is true (1) when growth inhibition meets or exceeds it, else false (0).

- COMPOUND: "OC(CNC12CC3CC(CC(C3)C1)C2)c1cccc(C(F)(F)F)c1 (stereo not given)"
  CLASS_LABEL: "true (1)"
- COMPOUND: "CS(=O)(=O)Nc1ccc2c(C3CCN(CC4CCN(C(=O)/C=C/c5ccc(Cl)c(Cl)c5)CC4)CC3)c[nH]c2c1"
  CLASS_LABEL: "true (1)"

Here is another compound to look at.
Lookup: Threshold query (growth inhibition >= 90%) on CCCCC/C=C/C(=O)NC1CCC(CN2CCC(c3c[nH]c4ccccc34)CC2)CC1 (stereo not given)
Found: false (0)

###

PROCEDURE_TEXT: Cy5 fluorescence quenching or enhancement artefacts, artefact control for HCV NS3 helicase inhibitor project, biochemical, LOPAC1280 (AID 687037)
ASSAY_CONTEXT: Cy5-DNA-NS3h complex fluorescence interference counterscreen
Calls of active or inactive are those of the source. No rule for the calls is given here.
Entries and their fluorescence ratio (interference) values follow.

Below, 5 molecules whose answers are already recorded.
- MOLECULE: "NCCc1ccc(S(=O)(=O)F)cc1"
  fluorescence ratio (interference): "0.9 (inactive)"
- MOLECULE: "CC(=O)OCC1=C(C(=O)[O-])N2C(=O)[C@@H](NC(=O)CCC[C@@H](N)C(=O)[O-])[C@H]2SC1.[Zn+2]"
  fluorescence ratio (interference): "0.9 (inactive)"
- MOLECULE: "CCC1(c2ccc(N)cc2)CCC(=O)NC1=O (configuration not stated)"
  fluorescence ratio (interference): "1 (inactive)"
- MOLECULE: "CCCC(C)(COC(N)=O)COC(=O)NC(C)C (configuration not stated)"
  fluorescence ratio (interference): "1 (inactive)"
- MOLECULE: "CCN(CCCl)Cc1ccccc1Br"
  fluorescence ratio (interference): "1 (inactive)"

Value of measured fluorescence ratio (interference) for the entry CC(C)N(CCC(C(N)=O)(c1ccccc1)c1ccccn1)C(C)C (configuration not stated) : 1 (inactive)

For this molecule ( CN1CCC(c2c[nH]c3ccc(O)cc23)CC1 ), measured fluorescence ratio (interference) is 1 (inactive)

Per the record, O=C(O)[C@@H]1CCN1 has fluorescence ratio (interference) of 0.9 (inactive)

Reported fluorescence ratio (interference) ( CCCN(CCC)[C@@H]1CCc2cccc(O)c2C1 ) = 1 (inactive)

The value of fluorescence ratio (interference) measured for the molecule CC(C)NP(=O)(NC(C)C)OP(=O)(NC(C)C)NC(C)C turned out to be 1 (inactive)

fluorescence ratio (interference) reported for this molecule OCc1cnc[nH]1 : 1 (inactive)

Short answer for CN[C@@H]1C[C@@H](c2ccc(Cl)c(Cl)c2)c2ccccc21 : fluorescence ratio (interference) was 0.9 (inactive)

Consider C#CCN[C@H](C)Cc1ccccc1 . Its measured fluorescence ratio (interference) is 1 (inactive)

Entry under test: CC12CCC3C(CCC4=C(O)C(=O)CCC43C)C1CCC2=O (configuration not stated) . Its fluorescence ratio (interference) was 1 (inactive)

Value of measured fluorescence ratio (interference) for the entry CC(C)[C@H]1CN[C@H](C(=O)O)[C@H]1CC(=O)O : 1 (inactive)

Recorded result, COc1ccc2c(c[n+](C)c3c4cc5c(cc4ccc23)OCO5)c1OC , fluorescence ratio (interference): 0.9 (inactive)

Kindly note the recorded fluorescence ratio (interference) for NCc1cc(=O)[nH]o1 , which is 1 (inactive)

fluorescence ratio (interference) recorded for this molecule, CCN(CC)c1ncnc2c1ncn2[C@@H]1O[C@H](COP(=O)(O)OP(=O)(O)C(Br)(Br)P(=O)(O)O)[C@@H](O)[C@H]1O , is 1 (inactive)

###

Test system: Aerobactin synthetase IucA (Klebsiella pneumoniae, hypervirulent)
PROCEDURE_TEXT: IucA enzyme inhibition, biochemical, LOPAC library, absorbance readout (AID 1346212);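 also: 100% = no compound wells and 0% = no enzyme wells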
ASSAY_CONTEXT: IucA enzyme assay, absorbance (OD) readout; active compounds read low; concentration not given here
OBSERVED_PROPERTY: remaining activity (%)
Please give a number only; it is taken to be in %.

Would you please look over these solved cases?
- SMILES: "COc1ccccc1CNCCCCCCNCCCCCCCCNCCCCCCNCc1ccccc1OC"
  OUTPUT_UNIT: "%"
  remaining activity: 91.3
- SMILES: "S=C(NC1CCCCC1)N1CCC(c2cnc[nH]2)CC1"
  OUTPUT_UNIT: "%"
  remaining activity: 99.4
- SMILES: "COC(=O)[C@H]1[C@H]2C[C@H]3c4[nH]c5ccccc5c4CCN3C[C@H]2CC[C@@H]1O"
  OUTPUT_UNIT: "%"
  remaining activity: 95.4
- SMILES: "CC(N)=NCCCC[C@@H](N)C(=O)O"
  OUTPUT_UNIT: "%"
  remaining activity: 124

Continue with the next molecule.
The molecule listed as CC(=O)[C@]1(O)Cc2c(O)c3c(c(O)c2[C@@H](O[C@H]2C[C@H](N)[C@H](O)[C@H](C)O2)C1)C(=O)c1ccccc1C3=O has a reported remaining activity of 125

###

PROCEDURE_TEXT: sensitizers of A549 cells to miR-34 induction, primary screen, imaging, A549 dox-inducible miR-34, nuclei and caspase counts (AID 1347080)
ASSAY_CONTEXT: A549 miR-34 inducible, Hoechst nuclei count, 48 h; active compounds read low
Labelling field: enter TRUE if recorded fold change is less than 0.9. Enter FALSE if it equals or exceeds that cut-off.

For orientation, consider the following solved cases.
- MOLECULE: "Clc1ccc(CO/N=C(\\Cn2ccnc2)c2ccc(Cl)cc2Cl)c(Cl)c1"
  CLASS_LABEL: "TRUE"
- MOLECULE: "Clc1cnc(Oc2ccc(Oc3ncc(Cl)cc3Cl)cc2)c(Cl)c1"
  CLASS_LABEL: "FALSE"
- MOLECULE: "COc1cc2c(cc1OC)C(C)NCC2 (centres undefined)"
  CLASS_LABEL: "TRUE"
- MOLECULE: "C#CC(C)(O)CC (centres undefined)"
  CLASS_LABEL: "TRUE"
- MOLECULE: "CC(=O)Nc1ccc(OC[C@](C)(O)C(=O)Nc2ccc([N+](=O)[O-])c(C(F)(F)F)c2)cc1"
  CLASS_LABEL: "FALSE"
- MOLECULE: "O=C1CC[C@@]2(O)[C@H]3Cc4ccc(O)c5c4C2(CCN3CC2CC2)[C@H]1O5"
  CLASS_LABEL: "TRUE"
- MOLECULE: "CC(=O)[O][Hg][c]1ccccc1"
  CLASS_LABEL: "TRUE"
- MOLECULE: "C#CCOC(=O)C1=CCCN(C)C1"
  CLASS_LABEL: "FALSE"

Lookup: # check: fold change < 0.9 for Ic1ccccc1CNC1C2CCN(CC2)C1C(c1ccccc1)c1ccccc1 (centres undefined)
Found: TRUE

Lookup: Determine if CCN(C(C)=O)c1cccc(-c2ccnc3c(C#N)cnn23)c1 shows fold change strictly lower than 0.9.
Found: TRUE

Lookup: Quick check: does C[C@@]1(CO)[C@H](O)CC[C@@]2(C)[C@H]1CC[C@H]1C[C@@H]3C[C@@]12CC[C@]3(O)CO have fold change under 0.9?
Found: FALSE

Lookup: Dear reviewer, please state whether NCC(CP(=O)(O)O)c1ccc(Cl)cc1 (centres undefined) has fold change strictly beneath 0.9.
Found: FALSE

Lookup: In the record for CN1CCc2cccc(Cl)c2CC1 , is fold change less than 0.9?
Found: FALSE

###

PROCEDURE_TEXT: growth inhibition of GSK3B-pretreated HCT116 cells – cell-based, CellTiter-Glo, 0.2 to 20 µM (AID 1117336)
ASSAY_CONTEXT: HCT116 viability after GSK3B inhibitor, at 20 µM, active compounds read high
Parameter: viability decrease. Scope: all listed entries.
Respond numerically; units are % and should not be typed.

Example cases with answers are listed next.
- COMPOUND: "C=C1C[C@@H]2[C@H](CC[C@]3(C)C(=O)CC[C@@H]23)[C@@]2(C)C=CC(=O)C=C12"
  OBSERVED_PROPERTY: "viability decrease"
  MEASURED_VALUE: 2.6
- COMPOUND: "C#C[C@]1(O)C=C[C@H]2[C@@H]3CCC4=CC(=O)CC[C@@H]4[C@H]3CC[C@@]21CC"
  OBSERVED_PROPERTY: "viability decrease"
  MEASURED_VALUE: 7.4
- COMPOUND: "Nc1ccc(Cl)cc1C(=O)c1ccccc1F"
  OBSERVED_PROPERTY: "viability decrease"
  MEASURED_VALUE: 23.5
- COMPOUND: "C[N+]1(CCC(C(N)=O)(c2ccccc2)c2ccccc2)CCCCC1"
  OBSERVED_PROPERTY: "viability decrease"
  MEASURED_VALUE: 13.5
- COMPOUND: "CN1[C@@H]2CC[C@H]1CC(OC(=O)c1cc(Cl)cc(Cl)c1)C2 (stereo partly drawn)"
  OBSERVED_PROPERTY: "viability decrease"
  MEASURED_VALUE: 59.7

Looking up CC(=O)O[C@H]1C[C@H](O[C@H]2[C@@H](O)C[C@H](O[C@@H]3[C@@H](O)C[C@H](O[C@H]4CC[C@@]5(C)[C@H](CC[C@@H]6[C@H]5C[C@@H](O)[C@]5(C)[C@@H](C7=CC(=O)OC7)CC[C@]65O)C4)O[C@@H]3C)O[C@@H]2C)O[C@H](C)[C@H]1O[C@@H]1O[C@H](CO)[C@@H](O)[C@H](O)[C@@H]1O , I found its viability decrease recorded as 73.3

# compound CCN(CC)CCOC(=O)C(O)(c1ccccc1)c1ccccc1 ; its viability decrease = -5.8

Kindly note the recorded viability decrease for CC(Cc1ccc(O)cc1)NCC(O)c1cc(O)cc(O)c1 (stereo not drawn) , which is -4.2
